- procedureSummary: Solubility: saturated solution in PBS at room temperature
- Assay type: physicochemical
- conditionSet: aqueous buffer
Measured log10 solubility, listed per entry for reference.
Remember, log10 of solubility, in µM.

Past entries and their recorded results:
# compound, measured
rows = [
    ("Cc1c(CO)cc2ccc3c(c2c1-c1ccc2c(c1)OCO2)OCO3 [ZHU-IX-122-1]", 1.72),
    ("O=C(O)c1cc2ccc3c(c2c(-c2ccc4c(c2)OCO4)c1CO)OCO3 [ZHU-IX-157]", 2.41),
    ("O=C1OC(=O)c2c1cc1cc3c(cc1c2-c1cc2c(cc1Br)OCO2)OCO3 [ZHU-IX-120-3]", 1.07),
    ("O=C1OCc2c1cc1ccc3c(c1c2-c1ccc2c(c1)OCO2)OCO3 [Compound 145]", 1.39),
    ("O=C1OC(=O)c2c1cc1c(Br)cc3c(c1c2-c1cc2c(cc1Br)OCO2)OCO3 [ZHU-IX-120-1]", 1.14),
]

Entry under review: O=C1OCc2cc3ccc4c(c3c(-c3ccc5c(c3)OCO5)c21)OCO4 [ZHU-IX-139-2] . Reported log10 solubility?
1.32

Same question, Cc1cc2ccc3c(c2c(-c2ccc4c(c2)OCO4)c1CO)OCO3 [ZHU-IX-159] this time
1.39
